Assay: photoluminescence quantum yield (fraction); solvent given as SMILES
Conditions: in C1CCCCC1
// classify: if (photoluminescence quantum yield < 0.4) criterion met else criterion not met

Nc1ccc2cc3ccccc3cc2c1 :: criterion not met
Cn1ccc(-c2nc3ccccc3nc2/C=C/N2CCCC2)c1 :: criterion met
COc1ccc2n1[B-](F)(F)[N+]1=C(c3ccccc3)C=CC1=C2c1ccc(C)cc1 :: criterion met
Nc1cccc2ccccc12 :: criterion not met
COc1ccc2c3c(c4ccc(OC)cc4c2c1)C(C)(C)c1c-3ccc2ccccc12 :: criterion met

Field: below-cutoff. Rule: recorded photoluminescence quantum yield strictly less than 0.4. Subject: CCCCCCCCC1(CCCCCCCC)c2cc(-c3ccc([N+](=O)[O-])cc3)ccc2-c2ccc(-c3ccc([N+](=O)[O-])cc3)cc21
criterion met

Field: below-cutoff. Rule: recorded photoluminescence quantum yield strictly less than 0.4. Subject: CN(C)c1ccc(/C=C/c2ccc(-c3nc(C#N)c(C#N)n3C)cc2)cc1
criterion met

Field: below-cutoff. Rule: recorded photoluminescence quantum yield strictly less than 0.4. Subject: Cc1cc(C)c(C2=C3C=c4c(c5ccccc5c5ccccc45)=[N+]3[B-](F)(F)n3c2cc2c4ccccc4c4ccccc4c23)c(C)c1
criterion not met

Field: below-cutoff. Rule: recorded photoluminescence quantum yield strictly less than 0.4. Subject: CC1(C)Cc2c(c3ccccc3c3nc4c5c(c6ccccc6c4nc23)OC(C)(C)C5)O1
criterion not met
